Assay: in vivo
Conditions: mouse, in vivo, po
readout_kind: LD50 at 168 h (mg/kg)

| molecule | readout_kind | unit_tag | inequality_operator | endpoint_result |
| --- | --- | --- | --- | --- |
| CN1CCN(CCCO/N=C2C=C(/C=C/c3ccccc3)CC(C)(C)C/2)CC1 | LD50 at 168 h | mg/kg | = | 2000 |
| COc1ccc(/C=C/C2=CC(=N/OCC(C)CN(C)C)/CC(C)(C)C2)cc1 (racemic) | LD50 at 168 h | mg/kg | = | 1300 |
| CN(C)CCCO/N=C1C=C(/C=C/c2ccc(Cl)cc2)CC(C)(C)C/1 | LD50 at 168 h | mg/kg | = | 2000 |
| CC1(C)CC(/C=C/c2ccc(Cl)cc2)=CC(=N/OCCCN2CCOCC2)/C1 | LD50 at 168 h | mg/kg | > | 1000 |
| CC(C)N(CCO/N=C1C=C(/C=C/c2ccccc2)CC(C)(C)C/1)C(C)C | LD50 at 168 h | mg/kg | = | 1000 |
| COc1ccccc1/C=C/C1=CC(=N/OCCN2CCCCC2)/CC(C)(C)C1 | LD50 at 168 h | mg/kg | > | 1000 |
| CN(C)CCO/N=C1C=C(/C=C/c2ccc(Cl)cc2)CC(C)(C)C/1 | LD50 at 168 h | mg/kg | = | 2000 |
| CN(C)CCO/N=C1C=C(/C=C/c2ccccc2)CC(C)(C)C/1 | LD50 at 168 h | mg/kg | = | 1000 |
| CCN(CC)CCO/N=C1C=C(/C=C/c2ccc(OC)cc2)CC(C)(C)C/1 | LD50 at 168 h | mg/kg | = | 1000 |

---

Overview of reported Therapeutical index LD50 /ED50 across a group of molecules:
System: hexobarbital narcosis
Assay: Hexobarbital narcosis potentiating effect
Conditions: Table I; hexobarbital narcosis

| molecule | inequality_operator | Therapeutical index LD50 /ED50 |
| --- | --- | --- |
| COc1cccc(/C=C/C2=CC(=N/OCCCN3CCOCC3)/CC(C)(C)C2)c1 | > | 93.0 |
| CCCC(C)(COC(N)=O)COC(N)=O [Meprobamate, reference compound] | = | 4.2 |
| CC(CO/N=C1C=C(/C=C/c2ccccc2)CC(C)(C)C/1)CN(C)C (racemic) | = | 200.0 |
| CN(C)CCO/N=C1C=C(/C=C/c2ccc(Cl)cc2)CC(C)(C)C/1 | = | 80.0 |

---

Test system: acetic acid writhing
Experiment: Acetic acid "writhing test" on mice (Newbould)
Assay type: in vivo, white mice
Settings: Mus musculus; Table VII; oral, 1 h before acetic acid i.p.; read-out: ED50

| compound | target_under_test | ED50 |
| --- | --- | --- |
| CC(C)N(CCO/N=C1C=C(/C=C/c2ccccc2)CC(C)(C)C/1)C(C)C | acetic acid writhing | 50 mg/kg |
| CN(C)CCCO/N=C1C=C(/C=C/c2ccc(Cl)cc2)CC(C)(C)C/1 | acetic acid writhing | 155 mg/kg |
| CC(=O)Nc1ccc(O)cc1 [Paracetamol, reference compound] | acetic acid writhing | 180 mg/kg |
| COc1ccc(/C=C/C2=CC(=N/OCCCN(C)C)/CC(C)(C)C2)cc1OC | acetic acid writhing | 153 mg/kg |
| CN(C)CCCO/N=C1C=C(/C=C/c2cccc(Cl)c2)CC(C)(C)C/1 | acetic acid writhing | 178 mg/kg |
| COc1cccc(/C=C/C2=CC(=N/OCCN3CCOCC3)/CC(C)(C)C2)c1 | acetic acid writhing | ~160 mg/kg |
| CC1(C)CC(/C=C/c2cccc(Cl)c2)=CC(=N/OCCCN2CCOCC2)/C1 | acetic acid writhing | ~200 mg/kg |
| CN(C)CCCO/N=C1C=C(/C=C/c2ccccc2)CC(C)(C)C/1 | acetic acid writhing | 160 mg/kg |

The origin of these recorded values is patent US4939142A.
